The measured values listed here are drawn from patent US20170298096A1.

# Lookup of reported RAMPO Score keyed by entry
Biological target: T1, His-tagged P3028 (human, also: His-tag, terminus and sequence not given here)
T1 construct: in solution at 0.5 ug/mL over the peptide cards; found with anti-His-tag antibody and rabbit anti-mouse peroxidase (rampo); also called PGE73; not shown: His-tag
T1 peptide: VFDEFKPLVEEPQNLIK
Experiment: PEPSCAN chip ELISA, His-P3028 in solution;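 also: score is the raw OD at 405 nm from peroxidase colour with ABTS, imaged by CCD camera before and after staining, with wells showing air bubbles set to zero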
No end group written: not given here.

# binder, RAMPO Score
data = [
    ("KKLWTFFVKLSLFTER [SEQ ID NO 302]", "443 rampo score"),
    ("KKLDGFFVKLSLFTER [SEQ ID NO 95]", "386 rampo score"),
    ("KCLDTFFVKLSLFTER [SEQ ID NO 499]", "295 rampo score"),
    ("KKLDTFFVKLSLFNER [SEQ ID NO 31]", "599 rampo score"),
    ("KKLDTFFVKLSVFTER [SEQ ID NO 20]", "545 rampo score"),
    ("KKLDTFTVKLSLFTER [SEQ ID NO 324]", "517 rampo score"),
    ("KKLDTFFVELSLFTER [SEQ ID NO 527]", "240 rampo score"),
]
